B1: ETS1 (parent)
chain: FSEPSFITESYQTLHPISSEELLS

Variants of: B1
Assay: protein stability index of a GFP-peptide fusion (GPS, HEK-293T) (PSI 1-6); higher = more stable;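 also: lentivirally expressed fusions sorted by FACS into six bins by GFP to DsRed ratio, PSI derived from sequencing read proportions per bin multiplied by bin number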
Details: c terminus: a fixed tail appended
List of protein stability index values.
Enter the number alone.

# Construct Sequence, Measured Number
data = [
    ("FSEPSFITLSYQTLHPISSEELLS [E9L]", 1.5),
]

INPUT: Return value of protein stability index for input FSEPSFITESYSTLHPISSEELLS [Q12S] , no commentary.
OUTPUT: 1.88

INPUT: Look up and state reported protein stability index for FSEPSFITESYQTLHPISSEEVLS [L22V]
OUTPUT: 2.31

INPUT: # return recorded protein stability index for entry FSEPSAITESYQTLHPISSEELLS [F6A]
OUTPUT: 4

INPUT: Look up and state reported protein stability index for FSEPSFITESYFTLHPISSEELLS [Q12F]
OUTPUT: 1.98

INPUT: Dear colleague, please send me the reported protein stability index for FSEYSFITESYQTLHPISSEELLS [P4Y] when you can.
OUTPUT: 2.2

INPUT: Give the reported protein stability index for this variant. FSEPSFIAESYQTLHPISSEELLS [T8A]
OUTPUT: 2.29

Origin of values: the supplement of paper PMC10567573
